Recorded values, source patent US20040121316A1.

Subject of test: recombinant HIV-1 protease (Human immunodeficiency virus type 1 group M subtype B, UniProt P04585)
Construct: Enzyme: recombinant HIV-1 protease expressed in E.Coli; purchased Bachem California, Inc. H-9040; host or cells: E. coli
Method description: biochemical
Test settings: Ki (nM), Enzymatic assay
# Ki per entry
Quick reminder: number only, in nM, skip the unit.

{"columns": ["Compound", "Reported endpoint", "Quantitative readout"],
 "data": [
  ["Nc1n[nH]c2ccc(CN3C(=O)N(Cc4cccc(OCP(=O)(O)Oc5ccccc5)c4)C(Cc4ccccc4)C(O)C(O)C3Cc3ccccc3)cc12 (centres unmarked)", "Ki", 0.644]
]}

We next turn to a different compound, shown below.
Task: // Ki lookup, key: Nc1n[nH]c2ccc(CN3C(=O)N(Cc4cccc(OCP(=O)(Oc5ccccc5)Oc5ccccc5)c4)C(Cc4ccccc4)C(O)C(O)C3Cc3ccccc3)cc12 (centres unmarked)
Output: 0.543
